The measurements presented in this section are drawn from ChEMBL document CHEMBL1153942.

assay: Stability in rat skin homogenates; format: ADME, tissue-based, Zone of skin; conditions: read-out: Stability
Residues, ends and D or L forms follow the SMILES beside them. *: point of attachment. X1 = O=C(CCC(=O)*)OCC(O)C1OC(=O)C(O)=C1O
quantity_kind: half-life

Quick one: half-life of C[C@@H](O)[C@H](NC(=O)[C@H](CCCCN)NC(=O)CCC(=O)OCC(O)C1OC(=O)C(O)=C1O)C(=O)N[C@H](C(=O)N[C@@H](CCCCN)C(=O)N[C@@H](CO)C(=O)O)[C@@H](C)O (stereo partly specified) (X1-KTTKS-OH) ?
> 6 h
